Entry source: paper PMC8618058

- STUDY TARGET: ABCG2 (Homo sapiens)
- Construct: total membranes of ABCG2-expressing High Five insect cells
- Sequence (Q9UNQ0 whole entry): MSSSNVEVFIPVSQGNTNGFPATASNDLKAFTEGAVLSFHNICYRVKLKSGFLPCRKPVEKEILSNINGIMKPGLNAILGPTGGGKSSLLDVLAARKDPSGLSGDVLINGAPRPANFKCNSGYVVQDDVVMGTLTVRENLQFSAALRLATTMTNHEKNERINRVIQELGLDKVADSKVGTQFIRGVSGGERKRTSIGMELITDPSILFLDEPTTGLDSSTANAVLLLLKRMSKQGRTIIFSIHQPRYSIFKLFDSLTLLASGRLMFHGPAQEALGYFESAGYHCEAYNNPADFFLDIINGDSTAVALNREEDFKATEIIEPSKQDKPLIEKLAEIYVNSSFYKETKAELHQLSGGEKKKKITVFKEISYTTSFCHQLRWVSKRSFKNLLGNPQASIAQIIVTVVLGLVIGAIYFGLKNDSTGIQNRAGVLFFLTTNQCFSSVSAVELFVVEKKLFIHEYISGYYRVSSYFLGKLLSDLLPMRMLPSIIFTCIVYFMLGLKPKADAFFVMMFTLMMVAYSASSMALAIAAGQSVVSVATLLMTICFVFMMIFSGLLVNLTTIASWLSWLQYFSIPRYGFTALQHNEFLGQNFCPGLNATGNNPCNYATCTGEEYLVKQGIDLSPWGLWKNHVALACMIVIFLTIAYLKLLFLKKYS
- METHOD: stimulation of vanadate-sensitive ATPase activity in ABCG2-expressing insect cell membranes; also PhA efflux inhibition in HCT-116/BCRP cells
PROPERTY MEASURED: EC50 (nM)
Write the value in nM as a bare number.

Prompt: Can you look up the measured EC50 of COc1ccc(-c2c3occc3c(OC[C@H]3OC3(C)C)c3ccc(=O)oc23)cc1OC for me?
Completion: 3.8
